Target: SERCA2a (Mus musculus)
Construct: host or cells: HL-1 cardiac cells
Sequence (O55143 1-998 isoform O55143-2): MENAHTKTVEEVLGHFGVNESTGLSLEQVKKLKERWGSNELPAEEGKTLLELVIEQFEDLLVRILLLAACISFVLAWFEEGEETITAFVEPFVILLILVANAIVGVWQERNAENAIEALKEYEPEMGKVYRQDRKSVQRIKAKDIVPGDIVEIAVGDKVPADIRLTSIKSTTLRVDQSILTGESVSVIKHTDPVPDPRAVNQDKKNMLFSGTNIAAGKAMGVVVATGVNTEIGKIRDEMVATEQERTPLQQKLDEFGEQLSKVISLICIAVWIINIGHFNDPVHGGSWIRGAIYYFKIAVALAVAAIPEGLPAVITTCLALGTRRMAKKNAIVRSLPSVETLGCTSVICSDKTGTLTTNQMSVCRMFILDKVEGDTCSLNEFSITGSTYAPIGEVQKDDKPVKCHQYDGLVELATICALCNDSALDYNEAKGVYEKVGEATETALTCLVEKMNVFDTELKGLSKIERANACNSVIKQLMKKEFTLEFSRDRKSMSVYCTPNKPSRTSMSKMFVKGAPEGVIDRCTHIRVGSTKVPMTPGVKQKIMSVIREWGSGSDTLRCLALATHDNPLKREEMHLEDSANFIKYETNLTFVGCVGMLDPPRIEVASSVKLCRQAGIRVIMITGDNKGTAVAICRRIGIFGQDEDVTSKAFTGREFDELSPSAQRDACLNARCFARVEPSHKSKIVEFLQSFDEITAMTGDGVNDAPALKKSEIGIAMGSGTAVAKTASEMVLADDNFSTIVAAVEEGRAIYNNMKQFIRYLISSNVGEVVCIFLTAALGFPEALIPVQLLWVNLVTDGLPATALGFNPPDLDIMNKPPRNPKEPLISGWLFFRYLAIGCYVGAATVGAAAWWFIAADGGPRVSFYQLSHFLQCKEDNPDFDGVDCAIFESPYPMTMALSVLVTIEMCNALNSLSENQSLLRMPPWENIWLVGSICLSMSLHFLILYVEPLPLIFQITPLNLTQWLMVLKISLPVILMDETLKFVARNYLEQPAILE
Experiment: NADH-coupled ATPase assay on microsomal membrane vesicles from mouse heart ventricles (mouse SR)
Type: biochemical
Parameters: key: +++: a strong effect, comparable to or greater than that of a known compounds at a given concentration (25 µM in RyR2 R-CEPIA1er assay, 10 µM in caffeine assay and on microsomal membrane vesicles); ++: moderate effect; +: observable effect; -: no effect
Settings: 10 µM on microsomal membrane vesicles
experimental_endpoint: SERCA2a mouse SR effect class

Look over these answered cases.
- compound: "COc1ccc2c(c1)CN(CCCCC1(O)CC1)CCS2 [Compound 13d]"
  subject_of_test: "SERCA2a (Mus musculus)"
  SERCA2a mouse SR effect class: "++"
- compound: "COc1ccc(OCCCNCCCCC2(O)CC2)cc1 [Compound 13b]"
  subject_of_test: "SERCA2a (Mus musculus)"
  SERCA2a mouse SR effect class: "+"
- compound: "COc1ccc2c(c1)CN(Cc1ccc(C(=O)O)cc1)CCS2 [ARM210, reference compound]"
  subject_of_test: "SERCA2a (Mus musculus)"
  SERCA2a mouse SR effect class: "++"
- compound: "COc1ccc2c(c1)CN(CCCCNCCCCC1(O)CC1)CCS2 [Compound 13a]"
  subject_of_test: "SERCA2a (Mus musculus)"
  SERCA2a mouse SR effect class: "+"
- compound: "COc1ccc(SCCCN(CCCCC2(O)CC2)CCCCC2(O)CC2)cc1 [Compound 14c]"
  subject_of_test: "SERCA2a (Mus musculus)"
  SERCA2a mouse SR effect class: "+"

SERCA2a mouse SR effect class recorded for this compound, COc1ccc2c(c1)CN(CCCCN(CCCCC1(O)CC1)CCCCC1(O)CC1)CCS2 [Compound 14a] , is +++

SERCA2a mouse SR effect class recorded for this compound, COc1ccc(SCCCNCCCCC2(O)CC2)cc1 [Compound 13c] , is +++
